The entries below are paired with their reported AC50.
target_desc: Muscarinic acetylcholine receptor M1 (Homo sapiens, UniProt P11229); also: assay procedure not described here
Sequence (P11229 whole entry): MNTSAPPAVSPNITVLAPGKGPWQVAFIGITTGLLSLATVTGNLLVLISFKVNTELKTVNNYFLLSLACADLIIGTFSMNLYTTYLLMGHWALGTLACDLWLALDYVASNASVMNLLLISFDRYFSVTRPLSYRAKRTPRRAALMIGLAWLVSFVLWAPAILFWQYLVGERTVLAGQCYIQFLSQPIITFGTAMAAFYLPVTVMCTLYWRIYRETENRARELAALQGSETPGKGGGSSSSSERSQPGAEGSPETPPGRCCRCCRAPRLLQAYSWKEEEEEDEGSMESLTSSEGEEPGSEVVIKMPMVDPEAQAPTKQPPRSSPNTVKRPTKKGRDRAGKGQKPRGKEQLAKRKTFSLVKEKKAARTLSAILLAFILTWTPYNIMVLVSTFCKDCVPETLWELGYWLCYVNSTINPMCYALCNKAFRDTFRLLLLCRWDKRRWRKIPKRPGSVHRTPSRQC
Format: functional
readout_kind: AC50

* COc1c(O[C@@H]2O[C@H](CO)[C@@H](O)[C@H](O)[C@H]2O)cc2c(c1OC)-c1ccc(SC)c(=O)cc1[C@@H](NC(C)=O)CC2 [THIOCOLCHICOSIDE] | > 30 µM
* CC(=N)N1CC[C@H](SC2=C(C(=O)O)N3C(=O)[C@H]([C@@H](C)O)[C@H]3C2)C1 | 68 µM
* CCOC(=O)NNc1ccc(N(CC)CC(C)O)nn1 (stereo not given) | > 30 µM
* C=C[C@@]1(C)CC(=O)[C@]2(O)[C@@]3(C)[C@@H](O)CCC(C)(C)[C@@H]3[C@H](OC(=O)CCN(C)C)[C@H](OC(C)=O)[C@@]2(C)O1 | > 30 µM
* NS(=O)(=O)c1cc(C(=O)O)cc(N2CCCC2)c1Oc1ccccc1 [PIRETANIDE] | > 30 µM
* Cc1ccc2c(-c3ccccc3)nc(=O)n(C(C)C)c2c1 | > 30 µM
* CCOc1cc(CC(=O)N[C@@H](CC(C)C)c2ccccc2N2CCCCC2)ccc1C(=O)O [REPAGLINIDE] | > 30 µM
* COCCOC(=O)C1=C(C)NC(C)=C(C(=O)OC/C=C/c2ccccc2)C1c1cccc([N+](=O)[O-])c1 (stereo not given) | > 30 µM
* CCCN(CCC)CCc1cccc2c1CC(=O)N2 | > 30 µM
* CC(=O)Nc1c(I)c(C(=O)N[C@H]2C(O)O[C@H](CO)[C@@H](O)[C@@H]2O)c(I)c(N(C)C(C)=O)c1I (stereo not given in full) [METRIZAMIDE] | > 10 µM
* CN1CCN(CCCN2c3ccccc3Sc3ccc(S(=O)(=O)N(C)C)cc32)CC1 | 12 µM
* CCCCC1(CC)C(=O)NC(=O)NC1=O | > 30 µM
* CC(CCc1ccccc1)NC(C)C(O)c1ccc(O)cc1 (stereo not given) | > 10 µM
* N#Cc1ccccc1-c1cc(-c2ccccn2)cn(-c2ccccc2)c1=O | > 30 µM
* C=CC1=C(C(=O)O)N2C(=O)[C@@H](NC(=O)/C(=N\OCC(=O)O)c3csc(N)n3)[C@H]2SC1 | > 30 µM
* CCN(CC)CC(=O)Oc1ccc(NC(C)=O)cc1 | > 30 µM
* CCCCCCOC(=O)CCC(=O)CN [HEXAMINOLEVULINATE] | > 30 µM
* C[C@@H]1C[C@H]2[C@@H]3C[C@H](F)C4=CC(=O)C=C[C@]4(C)[C@@]3(F)[C@@H](O)C[C@]2(C)[C@H]1C(=O)CO | > 30 µM
* CNC(=O)c1cc(Oc2ccc(NC(=O)Nc3ccc(Cl)c(C(F)(F)F)c3)c(F)c2)ccn1 | > 30 µM
* O=C(Nc1nc(-c2cc(Cl)cs2)c(N2CCN(C3CCCCC3)CC2)s1)c1cnc(N2CCC(C(=O)O)CC2)c(Cl)c1 | > 10 µM
* O=C(O)c1ccccc1OP(=O)(O)O | > 30 µM
* CC1(C)C(/C=C/C=C/C=C/C=C2\N(CCCCS(=O)(=O)O)c3ccc4ccccc4c3C2(C)C)=[N+](CCCCS(=O)(=O)[O-])c2ccc3ccccc3c21 [INDOCYANINE GREEN ACID FORM] | 9.2 µM
* O=C(O)c1ccccc1Nc1cccc(C(F)(F)F)c1 | 0.54 µM
* CCCN(CC)C(CC)C(=O)Nc1c(C)cccc1C (stereo not given) | > 30 µM
* O=C1CN2Cc3c(ccc(Cl)c3Cl)N=C2N1 [ANAGRELIDE] | > 10 µM
